Value source: ChEMBL document CHEMBL5352398

Assay Details: Cmax in Sprague-Dawley rat at 5 mg/kg, iv and measured upto 24 hrs by LC-MS/MS analysis
Format: ADME, organism-based
Design: time < 24 hrs, dose 5 mg/kg, route iv
Assay Setup: in vivo
Each entry below carries its reported Cmax.
A number alone suffices; assume ng/mL.

* CCc1oc2ccccc2c1C(=O)c1cc(Br)c(O)c(Br)c1 | 14700

Then there is this compound:
Task: Respond only with Cmax recorded for O=C(c1cc(Cl)c(O)c(Cl)c1)n1ccc2cccnc21
Result: 18400

* * *

Measured pIC50, listed per entry for reference.
Study System: UniProt Q96S37
Sequence (Q96S37 whole entry): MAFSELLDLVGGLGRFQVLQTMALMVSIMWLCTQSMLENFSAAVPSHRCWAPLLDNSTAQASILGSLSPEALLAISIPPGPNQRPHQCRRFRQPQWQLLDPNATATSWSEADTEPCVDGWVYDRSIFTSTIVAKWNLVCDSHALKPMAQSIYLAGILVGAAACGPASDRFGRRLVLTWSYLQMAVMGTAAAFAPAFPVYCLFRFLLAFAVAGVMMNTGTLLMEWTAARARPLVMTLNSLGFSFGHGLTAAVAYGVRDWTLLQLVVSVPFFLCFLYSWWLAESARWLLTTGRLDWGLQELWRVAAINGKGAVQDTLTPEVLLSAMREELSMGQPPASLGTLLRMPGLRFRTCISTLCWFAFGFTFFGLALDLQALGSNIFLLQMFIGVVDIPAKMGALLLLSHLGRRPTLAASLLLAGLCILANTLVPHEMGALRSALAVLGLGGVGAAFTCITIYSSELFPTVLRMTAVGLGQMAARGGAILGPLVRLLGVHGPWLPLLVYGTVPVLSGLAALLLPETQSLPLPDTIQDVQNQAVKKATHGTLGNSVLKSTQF
Assay Details: Inhibition of human URAT1 stably overexpressing in human HEK293 cells assessed as inhibition of 14C-uric acid uptake preincubated for 30 mins followed by substrate addition and measured after 15 mins using 14C-uric acid as substrate by liquid scintillation counting analysis
Just so you know, pIC50 here is -log10 of the concentration in molar units; reply with that number alone.

Take a look at these entries with their results.
• O=C(c1cc(Cl)c(O)c(Cl)c1)n1ccc2c(Cl)ncnc21 = 5.70
• O=C(c1cc(Cl)c(O)c(Cl)c1)n1ccc2cnccc21 = 5.55
• O=C(c1cc(Cl)c(O)c(Cl)c1)n1ccc2ncccc21 = 5.81
• O=C(c1cc(Cl)c(O)c(Cl)c1)n1ccc2ccncc21 = 5.49
• O=C(c1cc(Cl)c(O)c(Cl)c1)n1ccc2cccnc21 = 6.10
• O=C(c1cc(Br)c(O)c(Br)c1)n1ccc2cccnc21 = 5.64
• COc1cc(C(=O)n2ccc3cccnc32)ccc1O = 5.57
• Cc1ccc2c(cnn2C(=O)c2cc(Cl)c(O)c(Cl)c2)c1 = 5.74

Consider now this further compound.
Task: Give the reported value of pIC50 for this record: O=C(c1cc(Cl)c(O)c(Cl)c1)n1ncc2ccccc21
Result: 5.65

* * *

Study System: Solute carrier family 2, facilitated glucose transporter member 9 (Mus musculus)
Sequence (Q3T9X0 whole entry): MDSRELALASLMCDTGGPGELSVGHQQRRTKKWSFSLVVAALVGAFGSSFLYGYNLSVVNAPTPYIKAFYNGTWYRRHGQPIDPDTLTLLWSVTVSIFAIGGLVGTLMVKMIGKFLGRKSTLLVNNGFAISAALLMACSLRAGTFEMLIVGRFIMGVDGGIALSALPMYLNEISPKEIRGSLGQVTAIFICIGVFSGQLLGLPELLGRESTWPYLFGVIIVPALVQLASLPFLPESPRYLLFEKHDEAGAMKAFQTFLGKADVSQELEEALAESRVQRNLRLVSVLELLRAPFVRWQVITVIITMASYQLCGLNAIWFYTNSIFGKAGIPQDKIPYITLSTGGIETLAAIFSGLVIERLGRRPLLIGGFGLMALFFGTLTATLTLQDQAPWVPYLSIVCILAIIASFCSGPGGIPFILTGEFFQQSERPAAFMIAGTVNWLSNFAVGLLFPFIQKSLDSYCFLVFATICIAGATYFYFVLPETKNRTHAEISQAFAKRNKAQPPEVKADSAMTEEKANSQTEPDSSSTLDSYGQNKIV
Assay Details: Inhibition of mouse GLUT9 transfected in human HEK293 cells assessed as inhibition of uric acid induced current by cell patch-clamp assay
pIC50: −log10 of the molar value.
Measurement Name: pIC50

- O=C(c1cc(Cl)c(O)c(Cl)c1)n1ccc2cccnc21: < 4.70

Here's the next entry for you.
Task: // Input: CCc1oc2ccccc2c1C(=O)c1cc(Br)c(O)c(Br)c1 . Output its pIC50 only.
Result: < 4.70
